Origin of the recorded values: ChEMBL document CHEMBL1123422

- System: DNA gyrase (Escherichia coli) (UniProt P0AES6+P0AES4)
- Assay procedure: Inhibition of DNA gyrase of Escherichia coli H560 cells
Could you please report measured Min concentration for the items listed next?
Give the value; after it, write the unit.

The measured Min concentration associated with CC1COc2c(N3CCN(C)CC3)c(F)cc3c(=O)c(C(=O)O)cn1c23 (stereo not given) reads 5 µg/mL

The measured Min concentration associated with "CCn1cc(C(=O)O)c(=O)c2ccc(C)nc21" reads 50 µg/mL

The measured Min concentration associated with "CCn1cc(C(=O)O)c(=O)c2cc3c(cc21)OCO3" reads 10 µg/mL

The measured Min concentration associated with CCn1cc(C(=O)O)c(=O)c2cc(F)c(N3CCC(CN)C3)cc21 (stereo not given) reads 3 µg/mL

The measured Min concentration associated with CCNCC1CCN(c2cc3c(cc2F)c(=O)c(C(=O)O)cn3CC)C1 (stereo not given) reads 2.5 µg/mL

The measured Min concentration associated with CCNCC1CCN(c2c(F)cc3c(=O)c(C(=O)O)cn(CC)c3c2F)C1 (stereo not given) reads 2.5 µg/mL

The measured Min concentration associated with "O=C(O)c1cn(C2CC2)c2cc(N3CCNCC3)c(F)cc2c1=O" reads 0.5 µg/mL

The measured Min concentration associated with CCn1cc(C(=O)O)c(=O)c2cc(F)c(N3CCC(CN)C3)c(F)c21 (stereo not given) reads 0.5 µg/mL

The measured Min concentration associated with CCn1cc(C(=O)O)c(=O)c2cc(F)c(N3CCC(CNC)C3)c(F)c21 (stereo not given) reads 0.5 µg/mL

The measured Min concentration associated with "CCn1cc(C(=O)O)c(=O)c2cc(F)c(N3CCNCC3)nc21" reads 5 µg/mL

---

Could you please report measured ED50 for the items listed next?
- Tested on: Mus musculus
- Assay procedure: Compound was evaluated for protective dose against the […] UC-76 lethal infection following sc administration in mouse
- Assay type: functional
- Run parameters: read-out: PD50
Output spec: scalar in mg/kg, unitless text.

The measured ED50 associated with CCNCC1CCN(c2c(F)cc3c(=O)c(C(=O)O)cn(CC)c3c2F)C1 (stereo unspecified) reads 1.6

The measured ED50 associated with CCn1cc(C(=O)O)c(=O)c2cc(F)c(N3CCC(CNC)C3)cc21 (stereo unspecified) reads 8

The measured ED50 associated with CC1COc2c(N3CCN(C)CC3)c(F)cc3c(=O)c(C(=O)O)cn1c23 (stereo unspecified) reads 5

The measured ED50 associated with CCn1cc(C(=O)O)c(=O)c2cc(F)c(N3CCC(CN)C3)cc21 (stereo unspecified) reads 6

The measured ED50 associated with "CCn1cc(C(=O)O)c(=O)c2cc(F)c(N3CCNCC3)cc21" reads 15

The measured ED50 associated with "O=C(O)c1cn(C2CC2)c2cc(N3CCNCC3)c(F)cc2c1=O" reads 3

---

- Test system: Mus musculus
- Assay procedure: Compound was evaluated for protective dose against the […] UC-76 lethal infection following sc administration in mouse
- Format: functional
- Run parameters: read-out: PD50
Could you please report measured ED50 for the items listed next?
Output spec: scalar in mg/kg, unitless text.

The measured ED50 associated with CCn1cc(C(=O)O)c(=O)c2cc(F)c(N3CCN(C)CC3)cc21 [PEFLOXACIN] reads 3.7

The measured ED50 associated with CCNCC1CCN(c2cc3c(cc2F)c(=O)c(C(=O)O)cn3CC)C1 (stereo not given) reads 3

The measured ED50 associated with CCn1cc(C(=O)O)c(=O)c2cc(F)c(N3CCNCC3)nc21 [ENOXACIN] reads 10

The measured ED50 associated with CCn1cc(C(=O)O)c(=O)c2cc3c(cc21)OCO3 [OXOLINIC ACID] reads 63
